Each entry below lists one item and its recorded z-score value.
# TESTED SYSTEM: Metabotropic glutamate receptor 8 (Rattus norvegicus) (UniProt P70579)
# Sequence (P70579 whole entry, looked up): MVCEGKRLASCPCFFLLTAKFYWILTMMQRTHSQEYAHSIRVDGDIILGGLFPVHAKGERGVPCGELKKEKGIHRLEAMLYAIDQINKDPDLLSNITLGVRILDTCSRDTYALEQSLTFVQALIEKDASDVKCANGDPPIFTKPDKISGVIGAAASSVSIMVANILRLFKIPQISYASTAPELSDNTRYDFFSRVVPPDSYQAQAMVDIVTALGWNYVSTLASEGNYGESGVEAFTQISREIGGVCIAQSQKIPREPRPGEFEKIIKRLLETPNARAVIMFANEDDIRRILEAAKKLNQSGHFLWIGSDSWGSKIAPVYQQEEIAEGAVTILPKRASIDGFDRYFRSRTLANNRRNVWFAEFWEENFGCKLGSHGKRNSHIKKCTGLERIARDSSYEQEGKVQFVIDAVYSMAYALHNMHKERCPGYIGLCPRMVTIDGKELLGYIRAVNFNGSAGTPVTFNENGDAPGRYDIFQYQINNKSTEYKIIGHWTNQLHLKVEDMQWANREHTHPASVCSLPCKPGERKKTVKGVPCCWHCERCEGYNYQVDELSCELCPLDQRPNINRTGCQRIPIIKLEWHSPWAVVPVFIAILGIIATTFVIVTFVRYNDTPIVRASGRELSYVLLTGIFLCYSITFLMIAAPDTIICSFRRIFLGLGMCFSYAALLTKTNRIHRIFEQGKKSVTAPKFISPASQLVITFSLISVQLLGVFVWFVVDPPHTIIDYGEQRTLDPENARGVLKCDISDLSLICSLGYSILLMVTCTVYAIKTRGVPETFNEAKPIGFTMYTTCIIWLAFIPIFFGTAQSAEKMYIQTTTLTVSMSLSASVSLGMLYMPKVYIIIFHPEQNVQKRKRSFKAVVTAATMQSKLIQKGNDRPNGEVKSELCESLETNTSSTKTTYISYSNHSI
# MEASUREMENT PROTOCOL: mGluR8 Gi/Go-coupled signaling modulation – cell-based, rat, thallium flux, HTS, primary screen (AID 488969)
# CONDITION LABEL: HEK293 rat mGluR8, GIRK thallium flux, FluoZin2; at 10 µM; stronger effect = higher value; submaximal glutamate (EC20) added with thallium
Whole data set: some 110,000 compounds, median “z-score” near -0.1, cut for the highest 2% near 2. The sample as a whole holds a higher share of the highest values than the screen did.
Give only the figure.

Below: 8 compounds and their reported z-score.
{"COMPOUND": "CCC(C)NC(=O)CCc1c(C)nc2nc(-c3cc(OC)cc(OC)c3)nn2c1C (stereo unspecified)", "z-score": -0.148}
{"COMPOUND": "COc1ccc2occ(C(=O)c3cccs3)c2c1", "z-score": 0.191}
{"COMPOUND": "CCSc1nnc(NC(=O)C2(C)Cc3ccccc3C(=O)O2)s1 (stereo unspecified)", "z-score": -0.0977}
{"COMPOUND": "O=C(O)CN1C(=O)C2(OCCCO2)c2ccccc21", "z-score": 0.0511}
{"COMPOUND": "CCSc1nnc(NC(=O)c2cc(C)nc3ccccc23)s1", "z-score": 0.31}
{"COMPOUND": "CCc1nnc(NC(=O)C2COc3ccccc3O2)s1 (stereo unspecified)", "z-score": 0.0066}
{"COMPOUND": "O=C(NCCc1ccccc1F)/C(=C/c1cccnc1)NC(=O)c1ccccc1", "z-score": 0.0991}
{"COMPOUND": "Cc1ccc(Cl)cc1NC1=C/C(=N\\S(=O)(=O)c2cccs2)c2ccccc2C1=O", "z-score": -0.209}

Read the next record carefully.
Exercise: Provide z-score, system Metabotropic glutamate receptor 8 (Rattus norvegicus) (UniProt P70579), entry COC(=O)c1cc2ccsc2n1Cc1cc(=O)n2ccccc2n1
Key: -0.127

----------
# TESTED SYSTEM: Metabotropic glutamate receptor 8 (Rattus norvegicus)
# MEASUREMENT PROTOCOL: mGluR8 Gi/Go-coupled signaling modulation – cell-based, rat, thallium flux, HTS, primary screen (AID 488969)
# CONDITION LABEL: HEK293 rat mGluR8, GIRK (G protein-gated inwardly rectifying potassium channel) thallium flux, FluoZin2; at 10 µM; stronger effect = higher value; submaximal glutamate (EC20) added with thallium
Whole data set: some 110,000 compounds, median “z-score” near -0.1, cut for the highest 2% near 2. The entries come from a sample that favours the highest values as a whole.
# Lookup of reported z-score keyed by entry
Could you respond with only the numeric value?

See these solved cases before continuing.
{"CHEMICAL SMILES": "O=C(C1=C(O)/C(=C/c2ccc(O)cc2)CCC1)C(F)(F)F", "z-score": 0.181}
{"CHEMICAL SMILES": "CC1=NN(c2ccc(C)cc2)C(=O)/C1=C\\c1ccc(Br)s1", "z-score": -0.327}
{"CHEMICAL SMILES": "CSc1nc(N2CCOCC2)c2c(c1C#N)CCCCC2", "z-score": -0.315}
{"CHEMICAL SMILES": "COc1ccc(S(=O)(=O)N(Cc2ccccc2)Cc2nc3ccccc3c(=O)[nH]2)cc1", "z-score": -0.148}
{"CHEMICAL SMILES": "O=C(c1ccccc1NS(=O)(=O)c1cccs1)N1CCCC1", "z-score": 0.676}
{"CHEMICAL SMILES": "O=C(COc1ccccc1)Nc1nnc(-c2ccccc2)o1", "z-score": -0.421}
{"CHEMICAL SMILES": "O=S(=O)(N/N=C/c1cn(Cc2ccccc2)c2ccccc12)c1ccccc1", "z-score": -0.216}
{"CHEMICAL SMILES": "CN1CCN(CCCNC(=O)c2ccc3c(c2)N(Cc2ccccc2)CCS3)CC1", "z-score": 0.775}

Exercise: Please report the measured z-score for CCCCn1c(N)c(-c2nc3ccccc3s2)c2c([N+](=O)[O-])nn(C)c(=O)c21
Key: 1.31
